- measured-target: DNA gyrase (Escherichia coli)
- assay-summary: Inhibitory concentration against Escherichia coli by Escherichia coli DNA gyrase gel-based supercoil assay
readout-kind: IC50 (µM)
Expressed in µM, but write only the number.

Form field IC50, entry CCOC(=O)c1cn(CC)c2cc(N3CCN(C(=O)c4ccc(N5C[C@H](CNC(C)=O)OC5=O)cc4F)CC3)c(F)cc2c1=O : 12.5
